Tested on: IL-6 production from mouse intraperitoneal macrophages
method notes: IC50 for IL-6 production from mouse macrophages, LPS + IFN-γ (Experiment 19)
Format: cell-based
measurement setup: mouse macrophages, LPS and IFN-γ, 20 hours
endpoint label: IC50 Concentration IL-6

Below, 4 molecules whose answers are already recorded.
molecule	assay target	IC50 Concentration IL-6
Nc1ncnc2c1ncn2[C@@H]1O[C@H](COP(=O)(O)O)[C@@H](O)[C@H]1O [adenosine 5′-monophosphate]	IL-6 production from mouse intraperitoneal macrophages	Not inhibited
CNC(=O)[C@H]1O[C@@H](n2cnc3c(NCc4cccc(I)c4)ncnc32)[C@H](O)[C@@H]1O	IL-6 production from mouse intraperitoneal macrophages	Not inhibited
Nc1nc2nc[nH]c2c(=O)[nH]1	IL-6 production from mouse intraperitoneal macrophages	Not inhibited
Nc1nc2c(nc(O)n2[C@@H]2O[C@H](CO)[C@@H](O)[C@H]2O)c(=O)[nH]1	IL-6 production from mouse intraperitoneal macrophages	Enhanced

Field IC50 Concentration IL-6 (entry `OC[C@H]1O[C@@H](n2cnc3c(O)ncnc32)[C@H](O)[C@@H]1O` ) reads Enhanced

Field IC50 Concentration IL-6 (entry Nc1nc2c(ncn2[C@@H]2O[C@H](COP(=O)(O)O)[C@@H](O)[C@H]2O)c(=O)[nH]1 [guanosine 5′-monophosphate] ) reads Not inhibited

Field IC50 Concentration IL-6 (entry `Nc1nc2c(ncn2[C@@H]2O[C@H](CO)[C@@H](O)[C@H]2O)c(=O)[nH]1` ) reads Not inhibited

Field IC50 Concentration IL-6 (entry `Nc1nc2c([nH]c(=O)n2[C@H]2C[C@H](O)[C@@H](CO)O2)c(=O)[nH]1` ) reads Enhanced

---

Test system: PGE2 production from mouse intraperitoneal macrophages
method notes: IC50 for PGE2 production from mouse macrophages, LPS + IFN-γ (Experiment 19)
Assay type: cell-based
measurement setup: Mus musculus, Macrophage, 20 h, read-out: IC50 Concentration PGE2
endpoint label: IC50

Field IC50 (entry Nc1c2ncn([C@@H]3O[C@H](CO)[C@@H](O)[C@H]3O)c2nc[n+]1[O-] [ANO, adenosine N1-oxide] ) reads 1.2 µM

Field IC50 (entry OC[C@H]1O[C@@H](n2cnc3c(O)ncnc32)[C@H](O)[C@@H]1O [IN, inosine] ) reads > 200 µM

Field IC50 (entry Nc1ncnc2c1ncn2[C@@H]1O[C@H](CO)[C@@H](O)[C@H]1O [AN, adenosine] ) reads > 200 µM

---

For each of the molecules below, state its IC50.
System: TNF-α production from mouse intraperitoneal macrophages
method notes: IC50 for TNF-α production from mouse macrophages, LPS + IFN-γ, nucleic acid derivatives (Experiment 19)
Assay type: cell-based
measurement setup: Macrophage; mouse macrophages, LPS and IFN-γ, 20 hours; read-out: IC50 Concentration TNF-α
# number only, unit µM dropped from output

Field IC50 (entry Nc1ncnc2nc[nH]c12 [adenine] ) reads 85.2

Field IC50 (entry Nc1ncnc2c1ncn2[C@@H]1O[C@H](COP(=O)(O)O)[C@@H](O)[C@H]1O [adenosine 5′-monophosphate] ) reads 32.1

Field IC50 (entry Nc1c2[nH]cnc2nc[n+]1[O-] [adenine N1-oxide] ) reads 137
